// provenance: the SangsterLogP compilation

The following compounds are listed with their measured logP values.
Keep it simple and answer with nothing but the number.

These solved cases illustrate the format of a correct answer.
1. CCCCCCNC(=O)N1C(=O)N(C)CC1O (stereo not drawn): 2.39
2. CN1CC(O)N(C(=O)NCCCl)C1=O (stereo not drawn): 0.71

Q. So what does the record say about logP for CN1CC(O)N(C(=O)NC2CCCCC2)C1=O (stereo not drawn) ?
A. 1.87
